Test system: BDF1 mice, Adenocarcinoma 755 s.c., tumor weight T/C
test: NCI In Vivo Anticancer Drug Screen. Data for tumor model Adenocarcinoma 755 (subcutaneous) in B6D2F1 (BDF1) mice
condition info: endpoint: mean tumor weight; dose: 40.0 mg/kg/injection; schedule: Q01DX011 (sc); vehicle: steriod suspending solution; higher = larger tumour
Would you kindly list T/C for each of these molecules?

Determine from records and report T/C for CC1C[C@@H]2[C@H]([C@@H](O)C[C@@]3(C)[C@H]2CC[C@]3(O)C(=O)CF)[C@@]2(C)CCC(=O)C=C12 (stereo not given in full)
13 % of control

Determine from records and report T/C for CC/C(=C(/CC)c1ccc(O)cc1)c1ccc(O)cc1
114 % of control

Determine from records and report T/C for C[C@]12CC[C@H](O)C[C@@H]1CC[C@@H]1[C@@H]2C(=O)C[C@]2(C)C3=CC(=O)O[C@H]3C[C@@H]12
77 % of control

Determine from records and report T/C for C[C@@H]1C[C@@H]([C@H](O)CC2CC(=O)NC(=O)C2)C(=O)[C@@H](C)C1
48 % of control

Determine from records and report T/C for C[C@]12C[C@H](O)[C@H]3[C@@H](CCC4=CC(=O)CC[C@@]43C)[C@@H]1CC[C@@H]2C(=O)CO
64 % of control

----------
Test system: BDF1 mice, Adenocarcinoma 755 s.c., tumor weight T/C
test: NCI In Vivo Anticancer Drug Screen. Data for tumor model Adenocarcinoma 755 (subcutaneous) in B6D2F1 (BDF1) mice
condition info: endpoint: mean tumor weight; dose: 1.0 mg/kg/injection; schedule: Q01DX011 (ip); vehicle: saline; higher = larger tumour
Would you kindly list T/C for each of these compounds?

Please tell me the measured T/C for COCCCNS(=O)(=O)c1ncnc2nc[nH]c12 ; system: BDF1 mice, Adenocarcinoma 755 s.c., tumor weight T/C.
74 % of control

Please tell me the measured T/C for C=CCn1cnc2c(=S)nc[nH]c21 ; system: BDF1 mice, Adenocarcinoma 755 s.c., tumor weight T/C.
48 % of control

Please tell me the measured T/C for CC(C)Sc1nc(N)nc2nc[nH]c12 ; system: BDF1 mice, Adenocarcinoma 755 s.c., tumor weight T/C.
41 % of control

Please tell me the measured T/C for CO[C@H](C(=O)[C@@H](O)[C@@H](C)O)[C@@H]1Cc2cc3cc(OC4CC(OC5CC(O)C(O)C(C)O5)C(O)C(C)O4)c(C)c(O)c3c(O)c2C(=O)[C@H]1OC1CC(OC2CC(OC3CC(C)(O)C(O)C(C)O3)C(O)C(C)O2)C(O)C(C)O1 (some centres undefined) ; system: BDF1 mice, Adenocarcinoma 755 s.c., tumor weight T/C.
11 % of control

----------
System: BDF1 mice, Adenocarcinoma 755 s.c., tumor weight T/C
test: NCI In Vivo Anticancer Drug Screen. Data for tumor model Adenocarcinoma 755 (subcutaneous) in B6D2F1 (BDF1) mice
condition info: endpoint: mean tumor weight; dose: 6.0 mg/kg/injection; schedule: Q01DX011 (ip); vehicle: carboxymethylcellulose (CMC); higher = larger tumour
Would you kindly list T/C for each of these compounds?

Determine from records and report T/C for CCCCNS(=O)(=O)c1ncnc2nc[nH]c12
44 % of control

Determine from records and report T/C for CC(C)CNS(=O)(=O)c1ncnc2nc[nH]c12
62 % of control

Determine from records and report T/C for FC(F)(F)c1nc(=S)c2[nH]cnc2[nH]1
70 % of control

Determine from records and report T/C for CCSc1ncc(Br)c(Sc2nc(N)nc3nc[nH]c23)n1
2 % of control

Determine from records and report T/C for CSc1ncnc2nc[nH]c12
28 % of control

Determine from records and report T/C for [Br][Hg][CH2]C1COC([CH2][Hg][Br])CO1 (stereo unspecified)
101 % of control
